Test system: A549 cells
protocol-text: Antiproliferative activity (MTT) against A549 tumor cell line
Assay type: cell-based, human
experimental-context: Homo sapiens, A549, 72 h, read-out: A549 IC50
Listed compounds paired with reported pIC50
API: returns pIC50 as number; meaning -log10 of concentration in mol/L.

COc1cc(/C=C/C(=O)CC(=O)/C=C/c2ccc(O)c(OC)c2)ccc1O [Compound 1, reference compound]; 4.25

Now for another entry.
Task item: I would be grateful if you could share the reported pIC50 for `COc1cc(/C=C/C(=O)/C=C/c2ccc(O)c(OC)c2)ccc1O` .
Reply: 4.74

###

System: A549 cells
protocol-text: Antiproliferative activity (MTT) against A549 tumor cell line
Format: cell-based, human
experimental-context: 72 h, MTT; read-out: A549 IC50
readout-type: pIC50
API: returns pIC50 as number; meaning -log10 of concentration in mol/L.

Task item: Give the reported pIC50 for N.N.[Cl][Pt][Cl] [Cisplatin, reference compound] (system: A549 cells).
Reply: 5.22

###

protocol-text: Cytotoxicity (MTT) on LLC-MK2 host cells
Type: cell-based
experimental-context: rhesus monkey
Binary label based on IC50 at 120 h with cut-off 20 µM: below gives condition met, not below gives condition not met.

O=C(Cn1ccnc1[N+](=O)[O-])NCc1ccccc1 [Benznidazole, reference compound]; condition not met

Task item: Check if IC50 at 120 h falls below 20 µM for COc1cc(/C=C2\CC/C(=C\c3ccc(O)c(OC)c3)C2=O)ccc1O [Compound 6] .
Reply: condition met

Task item: Check COc1cc(/C=C2\CN(C)C/C(=C\c3ccc(O)c(OC)c3)C2=O)ccc1O [Compound 9] too.
Reply: condition not met

Task item: Check COc1cc(/C=C2\CS(=O)(=O)C/C(=C\c3ccc(O)c(OC)c3)C2=O)ccc1O [Compound 12] too.
Reply: condition met

Task item: Check COc1cc(/C=C/C(=O)CC(=O)/C=C/c2ccc(O)c(OC)c2)ccc1O [Compound 1, reference compound] too.
Reply: condition not met

Task item: Check COc1cc(/C=C2\CCC/C(=C\c3ccc(O)c(OC)c3)C2=O)ccc1O [Compound 7] too.
Reply: condition met

Task item: Check COc1cc(/C=C2\COC/C(=C\c3ccc(O)c(OC)c3)C2=O)ccc1O [Compound 8] too.
Reply: condition not met

###

Listed molecules paired with reported pIC50
Test system: H460 cells
protocol-text: Antiproliferative activity (MTT) against H460 tumor cell line
Assay type: cell-based, human
experimental-context: Homo sapiens, NCI-H460, 72 h, read-out: H460 IC50
API: returns pIC50 as number; meaning -log10 of concentration in mol/L.

COc1cc(/C=C/C(=O)CC(=O)/C=C/c2ccc(O)c(OC)c2)ccc1O [Compound 1, reference compound]; 4.42

Task item: I would be grateful if you could share the reported pIC50 for `COc1cc(/C=C/C(=O)/C=C/c2ccc(O)c(OC)c2)ccc1O` .
Reply: 4.99

###

Listed compounds paired with reported IC50 at 120 h
protocol-text: Cytotoxicity (MTT) on LLC-MK2 host cells
Assay type: cell-based
experimental-context: rhesus monkey
Please reply with the bare figure in µM and do not write the unit itself.

COc1cc(/C=C2\CSC/C(=C\c3ccc(O)c(OC)c3)C2=O)ccc1O; 13

Now for another entry.
Task item: I would be grateful if you could share the reported IC50 at 120 h for COc1cc(/C=C2\C[S+]([O-])C/C(=C\c3ccc(O)c(OC)c3)C2=O)ccc1O (stereo not drawn) .
Reply: 28.5
